B1: SAM and SH3 domain-containing protein 1, residues 630 to 700; numbered along this chain, O94885 (parent)
chain: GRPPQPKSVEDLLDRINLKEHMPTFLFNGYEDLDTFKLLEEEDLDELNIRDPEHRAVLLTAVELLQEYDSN

Variants of: B1
MEASUREMENT_DESCRIPTION: abundance fitness (aPCA) (normalised: wild type 0, dead -1); higher = more abundant; growth selection in yeast, the domain comes from the species named
CONDITION_SET: Homo sapiens
EXPERIMENTAL_ENDPOINT: abundance fitness
The response must contain the number and no unit.

{"columns": ["MUTANT_CODE", "abundance fitness"],
 "data": [
  ["L65Q", -0.707],
  ["E42F", -0.743],
  ["S8V", -1.02],
  ["D45V", -0.151],
  ["E20R", -0.596],
  ["A56N", -0.108],
  ["E31L", -0.37],
  ["V62Y", -0.82],
  ["L65H", -0.853],
  ["N48R", -0.319]
]}

## Input If you can, please state the reported abundance fitness value of T35N .
## Output -0.159

## Input If you can, please state the reported abundance fitness value of I16P .
## Output -0.994

## Input If you can, please state the reported abundance fitness value of Q5V .
## Output -0.149

## Input If you can, please state the reported abundance fitness value of V62M .
## Output -0.648

## Input If you can, please state the reported abundance fitness value of P3W .
## Output -0.132

## Input If you can, please state the reported abundance fitness value of V62N .
## Output -0.578

## Input If you can, please state the reported abundance fitness value of D32V .
## Output -0.788

## Input If you can, please state the reported abundance fitness value of L33P .
## Output -0.896

## Input If you can, please state the reported abundance fitness value of T35R .
## Output 0.135

## Input If you can, please state the reported abundance fitness value of L59N .
## Output -0.491

## Input If you can, please state the reported abundance fitness value of D32W .
## Output -0.75
